target: alpha 2B receptor (Homo sapiens, UniProt P18089); construct: expressed in transfected cells; host or cells: NIH-3T3 cells; assay: RSAT (Receptor Selection and Amplification Technology) assay, alpha 2B; assay type: cell-based; conditions: intrinsic activity: ratio of maximal effect to that of standard full agonist brimonidine
Sequence (P18089 whole entry): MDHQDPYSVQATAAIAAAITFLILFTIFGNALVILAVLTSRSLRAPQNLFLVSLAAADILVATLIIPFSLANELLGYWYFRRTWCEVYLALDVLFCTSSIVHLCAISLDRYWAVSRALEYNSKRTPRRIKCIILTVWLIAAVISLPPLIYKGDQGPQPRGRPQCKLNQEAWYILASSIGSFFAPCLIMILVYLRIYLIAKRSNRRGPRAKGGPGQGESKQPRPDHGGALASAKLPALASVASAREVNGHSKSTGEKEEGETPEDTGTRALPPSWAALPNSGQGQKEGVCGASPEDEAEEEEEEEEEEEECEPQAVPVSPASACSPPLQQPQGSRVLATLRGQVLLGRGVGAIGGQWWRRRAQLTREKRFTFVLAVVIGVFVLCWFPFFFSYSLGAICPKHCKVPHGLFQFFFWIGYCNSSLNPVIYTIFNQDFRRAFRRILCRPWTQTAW
measured.property: RSAT (rel eff) Alpha 2B

Answered examples (3):
C[C@@H](NC1=NCCN1)c1cccc(Cl)c1Cl : 0.68
CCC(NC1=NCCN1)c1cccc(Cl)c1Cl (stereo not shown) : 0.82
C[C@H](NC1=NCCN1)c1cccc(Cl)c1Cl : 0.63

Now take the following molecule into account.
# input molecule: Clc1cccc(C(CCc2ccccc2)NC2=NCCN2)c1Cl (stereo not shown) ; wanted: its RSAT (rel eff) Alpha 2B
0.77
